Tested on: Salmonella typhimurium TA100
EXPERIMENTAL_DETAILS: Ames test (reverse mutation test), TA100
Format: cell-based
EXPERIMENTAL_SETUP: S9 Mix +; dose 62 µg/plate
# Lookup of reported Number of revertant colonies TA100 keyed by entry

Guide cases for Number of revertant colonies TA100, answers given:
[
  {
    "MOLECULE": "Nc1cc(-c2cccc(OC(F)(F)F)c2)n(-c2cccc(F)c2)n1 [Metabolite G]",
    "MEASUREMENT_KIND": "Number of revertant colonies TA100",
    "RESULT": 630
  },
  {
    "MOLECULE": "Cc1cccc(-n2nc(N)cc2-c2cccc(OC(F)(F)F)c2)c1 [Metabolite H]",
    "MEASUREMENT_KIND": "Number of revertant colonies TA100",
    "RESULT": 2212
  },
  {
    "MOLECULE": "Nc1cc(-c2cccc(OCC(F)(F)F)c2)n(-c2ccc(F)cc2)n1 [Metabolite E]",
    "MEASUREMENT_KIND": "Number of revertant colonies TA100",
    "RESULT": 2320
  }
]

Now consider the entry below.
Provide Number of revertant colonies TA100 value for the following molecule: Cc1ccc(-n2nc(N)cc2-c2cccc(OCC(F)(F)F)c2)cc1 [Metabolite F]
3713

---

Entries annotated with measured Number of revertant colonies TA1537
Tested on: Salmonella typhimurium TA1537
EXPERIMENTAL_DETAILS: Ames test (reverse mutation test), TA1537
Assay type: cell-based
EXPERIMENTAL_SETUP: S9 Mix +; dose 556 µg/plate
Experimental: The solvent used herein was dimethyl sulfoxide (DMSO, 100 µL/plate). The mixtures were preincubated at 37° C. for 20 minutes while shaking. […] Two plates per treatment were used.
Write the value as a bare number.

Example molecules with recorded Number of revertant colonies TA1537:
[
  {
    "MOLECULE": "Cc1ccc(-n2nc(N)cc2-c2cccc(OCC(F)(F)F)c2)cc1 [Metabolite F]",
    "MEASUREMENT_KIND": "Number of revertant colonies TA1537",
    "QUANTITATIVE_READOUT": 54
  },
  {
    "MOLECULE": "Nc1cc(-c2cccc(OC(F)(F)F)c2)n(-c2cccc(F)c2)n1 [Metabolite G]",
    "MEASUREMENT_KIND": "Number of revertant colonies TA1537",
    "QUANTITATIVE_READOUT": 0
  },
  {
    "MOLECULE": "Nc1cc(-c2cccc(OCC(F)(F)F)c2)n(-c2ccc(F)cc2)n1 [Metabolite E]",
    "MEASUREMENT_KIND": "Number of revertant colonies TA1537",
    "QUANTITATIVE_READOUT": 0
  }
]

Consider the additional molecule presented here.
Read off the recorded Number of revertant colonies TA1537 for Cc1cccc(-n2nc(N)cc2-c2cccc(OC(F)(F)F)c2)c1 [Metabolite H]
10

---

Test system: Escherichia coli WP2uvrA
EXPERIMENTAL_DETAILS: Ames test (reverse mutation test), WP2uvrA
Assay type: cell-based
EXPERIMENTAL_SETUP: S9 Mix +; dose 62 µg/plate
Experimental: The solvent used herein was dimethyl sulfoxide (DMSO, 100 µL/plate). The mixtures were preincubated at 37° C. for 20 minutes while shaking. […] Two plates per treatment were used.
Reported Number of revertant colonies WP2uvrA values follow for various molecules
Just the number.

Example entries and their recorded answers appear below.
[
  {
    "MOLECULE": "Cc1cccc(-n2nc(N)cc2-c2cccc(OC(F)(F)F)c2)c1 [Metabolite H]",
    "Number of revertant colonies WP2uvrA": 35
  },
  {
    "MOLECULE": "Cc1ccc(-n2nc(N)cc2-c2cccc(OCC(F)(F)F)c2)cc1 [Metabolite F]",
    "Number of revertant colonies WP2uvrA": 24
  },
  {
    "MOLECULE": "Nc1cc(-c2cccc(OC(F)(F)F)c2)n(-c2cccc(F)c2)n1 [Metabolite G]",
    "Number of revertant colonies WP2uvrA": 24
  }
]

Please find the next molecule below.
Return value of Number of revertant colonies WP2uvrA for input Nc1cc(-c2cccc(OCC(F)(F)F)c2)n(-c2ccc(F)cc2)n1 [Metabolite E] , no commentary.
30

These data points were gathered from patent US20230210831A1.
